Reference source for all entries: the OligoGym collection

biological target: RNMTL1; assay: pooled miR-30 sensor sort-seq; sequence = guide strand; conditions: shRNA
measured_attribute: sensor-assay potency score (higher = more potent)
Provide a numeric answer; units are not to be included.

monomer_sequence: TACTATTGTCATTACACTGCTC
recorded_measurement: 0.0183

monomer_sequence: TTTATTAGACATCTCAGCCTGG
recorded_measurement: 0.616

monomer_sequence: TTTCCTGTAACTGTATGACGGC
recorded_measurement: -0.465

monomer_sequence: TTCTGTTCCACCACCTCTCCGG
recorded_measurement: -0.00954

Next, consider the following sequence.
*Q* Missing value: sensor-assay potency score (higher = more potent), RNMTL1, entry `TTGGTGAGTAACACTTTGCTGC` . Fill in?
*A* -0.11

---

molecular target: TMEM42; experiment: pooled miR-30 sensor sort-seq; sequence = guide strand; details: shRNA
Label f if sensor-assay potency score (higher = more potent) falls below -1; label t in every other case.

*Q* Quick check: does `TGGATTAGGGTGAGTCCGCAGA` have sensor-assay potency score (higher = more potent) greater than or equal to -1?
*A* f

---

target: NLGN1; assay: pooled miR-30 sensor sort-seq; sequence = guide strand; conditions: shRNA
Quick list: sensor-assay potency score (higher = more potent) per entry.
Provide a numeric answer; units are not to be included.

# count of solved cases: 5
monomer_sequence: TATCTGAAACATTGCAACCAAC
recorded_measurement: -1.43
--
monomer_sequence: TAGCATTGGACTAATAGTCATT
recorded_measurement: -0.504
--
monomer_sequence: TTGGTCAACAAGTTCTTTGTAA
recorded_measurement: 0.00294
--
monomer_sequence: TTTATTTCACACAATGACCAGT
recorded_measurement: 0.0352
--
monomer_sequence: TTGGTATGAATGAATTTCGTGT
recorded_measurement: -0.285

Next, consider the following sequence.
*Q* Item under review: `TTGCTCGTTGAAAAAGTCCTTT` . Reported sensor-assay potency score (higher = more potent)?
*A* -0.525

---

target: MAGEA8; assay: pooled miR-30 sensor sort-seq; sequence = guide strand; details: shRNA
Label false (0) if sensor-assay potency score (higher = more potent) falls below -0.4; label true (1) in every other case.

monomer_sequence: TAGAGGAGGAGGATGCAGCCTT
class_name: true (1)
--
monomer_sequence: TTTGATGACACTCTCAAGCATT
class_name: false (0)
--
monomer_sequence: TTCCTCAGCCTTGTAGCGCTGA
class_name: true (1)

*Q* Quick check: does `TAGCGCACAGGATCACTGCCGG` have sensor-assay potency score (higher = more potent) greater than or equal to -0.4?
*A* false (0)

*Q* Do the same for `TTCTTTATGTCTTTATCTCATG` please
*A* false (0)

---

biological target: TRPM3; assay: pooled miR-30 sensor sort-seq; sequence = guide strand; details: shRNA
Label Not met if sensor-assay potency score (higher = more potent) falls below -0.2; label Met in every other case.

monomer_sequence: AATGTCGTCAACCATGTCGTTC
class_name: Not met
--
monomer_sequence: TTGTACAATTCCTCTAGTCTGG
class_name: Met
--
monomer_sequence: TTGTCTTCGAAGTTTCACCTCT
class_name: Met
--
monomer_sequence: TTGTCTTTCATATTGACCGAAT
class_name: Not met
--
monomer_sequence: TTTCTCATTCTGAAGCACGGAG
class_name: Met
--
monomer_sequence: TTTCTTGAGCTCATCATCGGTT
class_name: Met
--
monomer_sequence: TTGTTCTTGAACTCCAAGCTGA
class_name: Met
--
monomer_sequence: TAAAATGCTCTTTCTATCCAGG
class_name: Not met

*Q* Quick check: does `TTATTTTACCATCCTCTCGGGT` have sensor-assay potency score (higher = more potent) greater than or equal to -0.2?
*A* Not met
